SYSTEM_TESTED: ERα (Homo sapiens)
PROTOCOL_SUMMARY: ERE luciferase reporter gene assay in T47D-KBluc cells (target engagement)
Assay type: cell-based
Design: T47D human breast cancer cells stably transfected with estrogen responsive element/promoter/luciferase reporter gene; host or cells: T47D-KBluc cells
CONDITION_INFO: 10% FBS, 24 hours, Table 1 cereblon centric PROTACs, read-out: ER-α Luciferase IC50
MEASURED_ENDPOINT: IC50 (nM)

[
  {
    "COMPOUND": "O=C1CCC(N2C(=O)c3ccc(N4CCN(CCCCOc5ccc(Oc6c(-c7ccc(Br)cc7)sc7cc(O)ccc67)cc5)CC4)cc3C2=O)C(=O)N1 (stereo not drawn)",
    "IC50 (nM)": 29.9
  },
  {
    "COMPOUND": "O=C1CC[C@H](N2Cc3cc(OCCN4C[C@@H]5C[C@H]4CN5CCOc4ccc(Oc5c(-c6ccc(Br)cc6)sc6cc(O)ccc56)cc4)ccc3C2=O)C(=O)N1",
    "IC50 (nM)": 0.53
  },
  {
    "COMPOUND": "O=C1CCC(N2C(=O)c3ccc(N4CCN(CCCCCCCOc5ccc(Oc6c(-c7ccc(Br)cc7)sc7cc(O)ccc67)cc5)CC4)cc3C2=O)C(=O)N1 (stereo not drawn)",
    "IC50 (nM)": 103
  }
]

a. O=C1CCC(N2Cc3cc(N4CCN(CCCCCCOc5ccc(Oc6c(-c7ccc(Br)cc7)sc7cc(O)ccc67)cc5)CC4)ccc3C2=O)C(=O)N1 (stereo not drawn)
b. C[C@@H](COc1ccc(Oc2c(-c3ccc(Br)cc3)sc3cc(O)ccc23)cc1)N1CCN(CCOc2cccc3c2CN(C2CCC(=O)NC2=O)C3=O)CC1 (stereo partly drawn)
c. O=C1CCC(N2C(=O)c3ccc(OCCOCCOc4ccc(Oc5c(-c6ccc(Br)cc6)sc6cc(O)ccc56)cc4)cc3C2=O)C(=O)N1 (stereo not drawn)
d. O=C1CCC(N2Cc3cc(OCCCOCCCOCCCCOc4ccc(Oc5c(-c6ccc(Br)cc6)sc6cc(O)ccc56)cc4)ccc3C2=O)C(=O)N1 (stereo not drawn)
e. O=C1CCC(N2Cc3cc(NCCOCCOc4ccc(Oc5c(-c6ccc(Br)cc6)sc6cc(O)ccc56)cc4)ccc3C2=O)C(=O)N1 (stereo not drawn)
Q: Rank by IC50 (largest to smallest). Form entry: labels listed in requested order.
Result: a, d, c, e, b
(a: 12.1 nM, d: 8.3 nM, c: 5.8 nM, e: 3.1 nM, b: 1.7 nM)

----------
SYSTEM_TESTED: ERα (Homo sapiens, UniProt P03372)
PROTOCOL_SUMMARY: ERE luciferase reporter gene assay in T47D-KBluc cells (target engagement)
Assay type: cell-based
Design: T47D human breast cancer cells stably transfected with estrogen responsive element/promoter/luciferase reporter gene; host or cells: T47D-KBluc cells
CONDITION_INFO: 10% FBS, 24 hours, Table 1 cereblon centric PROTACs, read-out: ER-α Luciferase IC50
pIC50: −log10 of the molar value.
MEASURED_ENDPOINT: pIC50

[
  {
    "MOLECULE": "O=C1CCC(N2Cc3c(NCCOCCOc4ccc(Oc5c(-c6ccc(Br)cc6)sc6cc(O)ccc56)cc4)cccc3C2=O)C(=O)N1 (stereo not drawn)",
    "VALUE_MEASURED": 8.08
  },
  {
    "MOLECULE": "O=C1CCC(N2C(=O)c3cccc(NCCOc4ccc(Oc5c(-c6ccc(Br)cc6)sc6cc(O)ccc56)cc4)c3C2=O)C(=O)N1 (stereo not drawn)",
    "VALUE_MEASURED": 8.09
  },
  {
    "MOLECULE": "O=C1CCC(N2C(=O)c3ccc(NCCCOCCOc4ccc(Oc5c(-c6ccc(Br)cc6)sc6cc(O)ccc56)cc4)cc3C2=O)C(=O)N1 (stereo not drawn)",
    "VALUE_MEASURED": 8.08
  }
]

1. O=C1CCC(N2C(=O)c3ccc(N4CCN(CCOc5ccc(Oc6c(-c7ccc(Br)cc7)sc7cc(O)ccc67)cc5)CC4)cc3C2=O)C(=O)N1 (stereo not drawn)
2. O=C1CCC(N2C(=O)c3cccc(NCCN4CCN(CCOc5ccc(Oc6c(-c7ccc(Br)cc7)sc7cc(O)ccc67)cc5)CC4)c3C2=O)C(=O)N1 (stereo not drawn)
3. O=C1CC[C@H](N2Cc3cc(OCCN4CC5(CN(CCOc6ccc(Oc7c(-c8ccc(Br)cc8)sc8cc(O)ccc78)cc6)C5)C4)ccc3C2=O)C(=O)N1
Q: Please list these in order of increasing pIC50. Thank you! Give the order by naming the labels one after another as requested.
Result: 1, 3, 2
(1: 7.97, 3: 8.62, 2: 8.89)

----------
SYSTEM_TESTED: UniProtKB P03372
Sequence (P03372 1-595): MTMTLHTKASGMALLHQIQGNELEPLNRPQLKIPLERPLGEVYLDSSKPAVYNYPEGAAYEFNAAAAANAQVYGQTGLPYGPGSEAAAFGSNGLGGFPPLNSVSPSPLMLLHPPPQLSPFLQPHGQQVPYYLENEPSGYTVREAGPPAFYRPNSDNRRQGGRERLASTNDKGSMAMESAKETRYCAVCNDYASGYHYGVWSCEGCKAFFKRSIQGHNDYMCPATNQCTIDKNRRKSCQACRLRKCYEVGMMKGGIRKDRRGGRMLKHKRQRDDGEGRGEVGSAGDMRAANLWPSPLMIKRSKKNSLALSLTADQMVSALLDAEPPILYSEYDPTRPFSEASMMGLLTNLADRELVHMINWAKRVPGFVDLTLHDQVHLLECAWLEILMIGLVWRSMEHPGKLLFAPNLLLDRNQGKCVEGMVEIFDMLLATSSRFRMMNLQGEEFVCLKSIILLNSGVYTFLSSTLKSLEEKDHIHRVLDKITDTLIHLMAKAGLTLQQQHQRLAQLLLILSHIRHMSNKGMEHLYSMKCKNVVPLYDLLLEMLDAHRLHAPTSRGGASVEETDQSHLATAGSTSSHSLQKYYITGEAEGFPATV
PROTOCOL_SUMMARY: ERE luciferase reporter gene assay in T47D-KBluc cells (target engagement)
Type: cell-based
Design: T47D human breast cancer cells stably transfected with estrogen responsive element/promoter/luciferase reporter gene; host or cells: T47D-KBluc cells
CONDITION_INFO: 10% FBS, 24 hours, Table 2 VHL centric PROTACs, read-out: IC50
MEASURED_ENDPOINT: IC50 (nM)

[
  {
    "COMPOUND": "Cc1ncoc1-c1ccc([C@H](C)NC(=O)[C@@H]2C[C@@H](O)CN2C(=O)[C@@H](NC(=O)COCCOCCOCCOc2ccc(Oc3c(-c4ccccc4)sc4cc(O)ccc34)cc2)C(C)(C)C)cc1 [Compound 138]",
    "SYSTEM_TESTED": "UniProtKB P03372",
    "UOM": "nM",
    "IC50": 0.1
  },
  {
    "COMPOUND": "Cc1ncsc1-c1ccc(CNC(=O)[C@@H]2C[C@@H](O)CN2C(=O)[C@@H](NC(=O)COc2cccc(CCN(C)CCOc3ccc(Oc4c(-c5ccc(F)cc5)sc5cc(O)ccc45)cc3)c2)C(C)(C)C)cc1 [Compound 139]",
    "SYSTEM_TESTED": "UniProtKB P03372",
    "UOM": "nM",
    "IC50": 0.6
  },
  {
    "COMPOUND": "Cc1ncsc1-c1ccc(CNC(=O)[C@@H]2C[C@@H](O)CN2C(=O)[C@@H](NC(=O)COCCO[C@H]2CCN(CCOc3ccc(Oc4c(-c5ccc(F)cc5)sc5cc(O)ccc45)cc3)C2)C(C)(C)C)cc1 [Compound 123]",
    "SYSTEM_TESTED": "UniProtKB P03372",
    "UOM": "nM",
    "IC50": 5.5
  },
  {
    "COMPOUND": "Cc1ncsc1-c1ccc([C@H](C)NC(=O)[C@@H]2C[C@@H](O)CN2C(=O)[C@@H](NC(=O)COCCOCCN(C)CCOc2ccc(Oc3c(-c4ccc(F)cc4)sc4cc(O)ccc34)cc2)C(C)(C)C)cc1 [Compound 128]",
    "SYSTEM_TESTED": "UniProtKB P03372",
    "UOM": "nM",
    "IC50": 0.3
  },
  {
    "COMPOUND": "Cc1ncsc1-c1ccc(CNC(=O)[C@@H]2C[C@@H](O)CN2C(=O)[C@@H](NC(=O)CCCOC2CCN(CCOc3ccc(Oc4c(-c5ccc(F)cc5)sc5cc(O)ccc45)cc3)CC2)C(C)(C)C)cc1 [Compound 137]",
    "SYSTEM_TESTED": "UniProtKB P03372",
    "UOM": "nM",
    "IC50": 87
  },
  {
    "COMPOUND": "Cc1ncsc1-c1ccc(CNC(=O)[C@@H]2C[C@@H](O)CN2C(=O)[C@@H](NC(=O)COCCOCCN2CCC(c3ccc(Oc4c(-c5ccc(F)cc5)sc5cc(O)ccc45)cc3)CC2)C(C)(C)C)cc1 [Compound 135]",
    "SYSTEM_TESTED": "UniProtKB P03372",
    "UOM": "nM",
    "IC50": 0.8
  }
]

1. C[C@H](NC(=O)[C@@H]1C[C@@H](O)CN1C(=O)[C@@H](NC(=O)Cc1ccc(-c2ccn(CCOc3ccc(Oc4c(-c5ccc(F)cc5)sc5cc(O)ccc45)cc3)n2)cc1)C(C)(C)C)c1ccc(Cl)cc1 [Compound 150]
2. CC(C)(C)[C@H](NC(=O)Cc1ccc(-c2ccn(CCOc3ccc(Oc4c(-c5ccc(F)cc5)sc5cc(O)ccc45)cc3)n2)cc1)C(=O)N1C[C@H](O)C[C@H]1C(=O)NCc1ccc(C#N)cc1 [Compound 145]
Q: Given 1 and 2 , report the one with the higher recorded IC50. Respond with the label that goes with your answer.
Result: 2
